Data origin, for the record: patent US9376425B2

molecular target: human MDM2 (GST-hMDM2 aa 1-188), interaction with biotinylated-p53 (aa 1-83) (Homo sapiens); construct: Amino acid residues 1-188 of human MDM2 were expressed; experiment: Homogenous Time-Resolved Fluorescence Assay (HTRF1 assay), inhibition of HDM2-p53 interaction; conditions: 2.5 nM GST-hMDM2, 5 nM biotinylated-p53, 200 mM KF
Criterion: IC50 strictly less than 0.8 µM. Met: YES. Not met: NO.

Hello, is IC50 of the following molecule strictly smaller than 0.8 µM? O=C(O)C[C@@H]1O[C@H](c2cccc(Cl)c2)[C@@H](c2ccc(Cl)cc2)N(CCC(F)(F)F)C1=O [Example 11]
YES

Hello, is IC50 of the following molecule strictly smaller than 0.8 µM? COc1ccc([C@@H]2[C@@H](c3cccc(Cl)c3)OC(CC(=O)O)C(=O)N2CC2CC2)cn1 (single isomer, unassigned) [Example 74]
NO

Hello, is IC50 of the following molecule strictly smaller than 0.8 µM? CC(C)c1ccc([C@@H]2[C@@H](c3cccc(Cl)c3)O[C@H](CC(=O)O)C(=O)N2CC2CC2)cc1 [Example 66]
NO

Hello, is IC50 of the following molecule strictly smaller than 0.8 µM? O=C(O)C[C@H]1O[C@H](c2cccc(Cl)c2)[C@@H](c2cc3ccccc3[nH]2)N(CC2CC2)C1=O (single isomer, unassigned) [Example 1]
NO

Hello, is IC50 of the following molecule strictly smaller than 0.8 µM? C[C@H](C1CCC1)N1C(=O)[C@@H](CC(=O)O)O[C@H](c2cccc(Cl)c2)[C@H]1c1ccc(Cl)cc1 [Example 20]
YES

Hello, is IC50 of the following molecule strictly smaller than 0.8 µM? O=C(O)CC1O[C@H](c2cccc(Cl)c2)[C@@H](c2ccc(Cl)nc2)N(CC2CC2)C1=O (single isomer, unassigned) [Example 71]
NO

Hello, is IC50 of the following molecule strictly smaller than 0.8 µM? O=C(O)C[C@@H]1O[C@H](c2cc(Cl)cc(-c3cn[nH]c3)c2)[C@@H](c2ccc(Cl)cc2)N(CC2CC2)C1=O (single isomer, unassigned) [Example 107]
NO

Hello, is IC50 of the following molecule strictly smaller than 0.8 µM? O=C(O)CC1O[C@H](c2cc(F)cc(F)c2)[C@@H](c2ccc(Cl)cc2)N(CC2CC2)C1=O (single isomer, unassigned) [Example 97]
YES

Hello, is IC50 of the following molecule strictly smaller than 0.8 µM? O=C(O)C[C@@H]1O[C@H](c2cccc(Cl)c2)[C@@H](c2ccc(Cl)cc2)N(C2CCCCC2)C1=O [Example 16]
YES

Hello, is IC50 of the following molecule strictly smaller than 0.8 µM? COc1cccc([C@H]2OC(CC(=O)O)C(=O)N(CC3CC3)[C@@H]2c2ccc(Cl)cc2)c1 (single isomer, unassigned) [Example 89]
NO

Hello, is IC50 of the following molecule strictly smaller than 0.8 µM? Cc1cccc([C@H]2OC(CC(=O)O)C(=O)N(CC3CC3)[C@@H]2c2ccc(Cl)cc2)c1 (single isomer, unassigned) [Example 102]
NO

* * *

target: human MDM2 (GST-hMDM2 1-188), interaction with biotinylated-p53 (1-83) (Homo sapiens, UniProt Q00987); construct: Amino acid residues 1-188 of human MDM2 were expressed; experiment: improved HTRF assay (HTRF2 assay), inhibition of HDM2-p53 interaction; conditions: 0.2 nM GST-hMDM2, 0.5 nM biotinylated-p53, 100 mM KF
Sequence (Q00987 1-188): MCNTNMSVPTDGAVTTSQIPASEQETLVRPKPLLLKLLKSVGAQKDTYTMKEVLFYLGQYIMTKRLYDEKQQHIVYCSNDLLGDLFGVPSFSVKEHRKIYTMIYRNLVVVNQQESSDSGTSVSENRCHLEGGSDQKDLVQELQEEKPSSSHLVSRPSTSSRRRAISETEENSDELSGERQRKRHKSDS
Provide the reported IC50 of each item.
Only the number, expressed in nM, is required.

Given the entry CC[C@@H](CS(=O)(=O)C(C)(C)C)N1C(=O)[C@@H](CC(=O)OC)O[C@H](c2cccc(Cl)c2)[C@H]1c1ccc(Cl)cc1 [Example 149] , report its measured IC50.
30

Given the entry CC[C@@H]([C@H](C)S(=O)(=O)C(C)(C)C)N1C(=O)[C@@H](CC(=O)O)O[C@H](c2cccc(Cl)c2)[C@H]1c1ccc(Cl)cc1 (single isomer, unassigned) [Example 420] , report its measured IC50.
12

Given the entry CC[C@@H](CS(=O)(=O)C(C)(C)C)N1C(=O)[C@@H](CC(=O)O)O[C@H](c2cccc(Cl)c2)[C@H]1c1ccc(Cl)cc1F (single isomer, unassigned) [Example 317] , report its measured IC50.
3

Given the entry CC[C@@H](CS(=O)(=O)C(C)(C)C)N1C(=O)[C@@H](Cc2nnnn2C)O[C@H](c2cccc(Cl)c2)[C@H]1c1ccc(Cl)cc1 (single isomer, unassigned) [Example 401] , report its measured IC50.
38

Given the entry Cc1nnc(C[C@H]2O[C@@H](c3cccc(Cl)c3)[C@@H](c3ccc(Cl)cc3)N([C@H](CN(c3ccccc3F)S(=O)(=O)C3CC3)C3CC3)C2=O)o1 (single isomer, unassigned) [Example 404] , report its measured IC50.
134

Given the entry CC(C)(C)S(=O)(=O)C[C@H](C1CC1)N1C(=O)[C@@H](CC(=O)Nc2ccccc2)O[C@H](c2cccc(Cl)c2)[C@H]1c1ccc(Cl)cc1 (single isomer, unassigned) [Example 351] , report its measured IC50.
4

Given the entry C[C@@H](CS(=O)(=O)C(C)(C)C)N1C(=O)[C@H](CC(=O)N2CCOCC2)O[C@H](c2cccc(Cl)c2)[C@H]1c1ccc(Cl)cc1 (single isomer, unassigned) [Example 235] , report its measured IC50.
11

* * *

Provide the reported IC50 of each item.
target: human MDM2 (GST-hMDM2 1-188), interaction with biotinylated-p53 (1-83) (Homo sapiens); construct: Amino acid residues 1-188 of human MDM2 were expressed; assay: improved HTRF assay (HTRF2 assay), inhibition of HDM2-p53 interaction; conditions: 0.2 nM GST-hMDM2, 0.5 nM biotinylated-p53, 100 mM KF
Only the number, expressed in nM, is required.

Given the entry CC[C@@H](CS(=O)(=O)C(C)(C)C)N1C(=O)[C@@H](CC#N)O[C@H](c2cccc(Cl)c2)[C@H]1c1ccc(Cl)cc1 [Example 381] , report its measured IC50.
66

Given the entry CC(C)(C)S(=O)(=O)C[C@H](C1CC1)N1C(=O)[C@@H](CC(=O)NCC(F)(F)F)O[C@H](c2cccc(Cl)c2)[C@H]1c1ccc(Cl)cc1 (single isomer, unassigned) [Example 346] , report its measured IC50.
21

Given the entry CC(C)[C@@H](CN(c1ccccc1F)S(=O)(=O)C(C)C)N1C(=O)[C@@H](CC(=O)O)O[C@H](c2cccc(Cl)c2)[C@H]1c1ccc(Cl)cc1 (single isomer, unassigned) [Example 199] , report its measured IC50.
1

Given the entry CC[C@@H](CN(c1ccccc1F)S(=O)(=O)C1CC1)N1C(=O)[C@@H](CC(N)=O)O[C@H](c2cccc(Cl)c2)[C@H]1c1ccc(Cl)cc1 (single isomer, unassigned) [Example 242] , report its measured IC50.
2

* * *

molecular target: human MDM2 (GST-hMDM2 1-188), interaction with biotinylated-p53 (1-83) (Homo sapiens, UniProt Q00987); construct: Amino acid residues 1-188 of human MDM2 were expressed; assay: improved HTRF assay (HTRF2 assay), inhibition of HDM2-p53 interaction; details: 0.2 nM GST-hMDM2, 0.5 nM biotinylated-p53, 100 mM KF
property: IC50 (nM)
Only the number, expressed in nM, is required.

Given the entry CC[C@@H](CN(c1ccccc1Cl)S(=O)(=O)C1CC1)N1C(=O)[C@@H](CC(=O)O)O[C@H](c2cccc(Cl)c2)[C@H]1c1ccc(Cl)cc1 (single isomer, unassigned) [Example 265] , report its measured IC50.
1

Given the entry CC[C@@H](CS(=O)(=O)C(C)(C)C)N1C(=O)[C@@H](CCO)O[C@H](c2cccc(Cl)c2)[C@H]1c1ccc(Cl)cc1 [Example 152] , report its measured IC50.
37

Given the entry CC(C)(C)S(=O)(=O)C[C@H](C1CC1)N1C(=O)[C@@H](CC(=O)O)O[C@H](c2ccc(Cl)c(Cl)c2)[C@H]1c1ccc(Cl)cc1 (single isomer, unassigned) [Example 319] , report its measured IC50.
113

* * *

biological target: human MDM2 (GST-hMDM2 1-188), interaction with biotinylated-p53 (1-83) (Homo sapiens, UniProt Q00987); construct: Amino acid residues 1-188 of human MDM2 were expressed; assay: improved HTRF assay (HTRF2 assay), inhibition of HDM2-p53 interaction; settings: 0.2 nM GST-hMDM2, 0.5 nM biotinylated-p53, 100 mM KF
property: IC50 (nM)
Only the number, expressed in nM, is required.

Given the entry CC[C@]1(CC(=O)O)O[C@H](c2cccc(Cl)c2)[C@@H](c2ccc(Cl)cc2)N([C@@H](CC(F)(F)F)CS(=O)(=O)C(C)(C)C)C1=O (single isomer, unassigned) [Example 343] , report its measured IC50.
1

Given the entry CC[C@@H](CS(=O)(=O)C1CC1)N1C(=O)[C@@H](CC(=O)O)O[C@H](c2cccc(Cl)c2)[C@H]1c1ccc(Cl)cc1 (single isomer, unassigned) [Example 212] , report its measured IC50.
2

Given the entry CC(C)(C)S(=O)(=O)C[C@H](C1CC1)N1C(=O)[C@@H](CC(=O)O)O[C@H](c2ccc(F)c(Cl)c2)[C@H]1c1ccc(Cl)cc1 (single isomer, unassigned) [Example 320] , report its measured IC50.
3

Given the entry CC[C@@H](CS(=O)(=O)[C@H](C)C(C)C)N1C(=O)[C@H](CC(=O)O)O[C@H](c2cccc(Cl)c2)[C@H]1c1ccc(Cl)cc1 (single isomer, unassigned) [Example 283] , report its measured IC50.
3

Given the entry CC[C@@H](CS(=O)(=O)C(C)(C)C)N1C(=O)[C@@H](CC(=O)O)O[C@H](c2cccc(Cl)c2)[C@H]1c1ccc(Cl)s1 (single isomer, unassigned) [Example 219] , report its measured IC50.
1
